Assay: physchem
Details: Tween 80
Description: The following oils were used in the research: hemp oil, evening primrose oil, and sunflower oil, as well as the following surfactants: Tween 40, Tween 60, Span 80, and Tween 80. […] The study was carried out in screw-cap vials with continuous magnetic stirring at 100 rpm at 25 °C for 48 h. A supersaturated solution was obtained and filtered through a syringe filter with MCE (Mixed Cellulose Ester) membrane (0.45 µm, ⌀ 47 mm). The content of the compound in the solution was determined by HPLC. […]
readout_type: solubility at 48 h (mg/mL)
Return type: number; implicit unit mg/mL.

Query block: Which solubility at 48 h value is on record for CC(C)Cc1ccc(C(C)C(=O)O)cc1 (stereo not shown) [IBU, ibuprofen] ?
Result block: 411

* * *

assay: physchem
readout_type: logP
Give a plain numeric answer without units written out.

Query block: Which logP value is on record for CC(C)Cc1ccc(C(C)C(=O)O)cc1 (stereo not shown) [IBU, ibuprofen] ?
Result block: 2.76

* * *

test: physchem; details: Tween 40
readout_type: solubility at 48 h

Query block: Which solubility at 48 h value is on record for CC(C)Cc1ccc(C(C)C(=O)O)cc1 (stereo not shown) [IBU, ibuprofen] ?
Result block: 466 mg/mL

* * *

Assay: physchem
Conditions: Tween 60, 25 °C, aqueous with cosolvent or surfactant or cyclodextrin, thermodynamic from solid
Protocol: The following oils were used in the research: hemp oil, evening primrose oil, and sunflower oil, as well as the following surfactants: Tween 40, Tween 60, Span 80, and Tween 80. […] The study was carried out in screw-cap vials with continuous magnetic stirring at 100 rpm at 25 °C for 48 h. A supersaturated solution was obtained and filtered through a syringe filter with MCE (Mixed Cellulose Ester) membrane (0.45 µm, ⌀ 47 mm). The content of the compound in the solution was determined by HPLC. […]
readout_type: solubility at 48 h
Please answer in the form of a number followed by its unit of measurement.

Query block: Which solubility at 48 h value is on record for CC(C)Cc1ccc(C(C)C(=O)O)cc1 (stereo not shown) ?
Result block: 520 mg/mL

* * *

experiment: physchem; settings: hemp oil
readout_type: solubility at 48 h
Please answer in the form of a number followed by its unit of measurement.

Query block: Which solubility at 48 h value is on record for CC(C)Cc1ccc(C(C)C(=O)O)cc1 (stereo not shown) ?
Result block: 95.4 mg/mL

* * *

experiment: physchem; conditions: evening primrose oil, 25 °C, oil or lipid, thermodynamic from solid
readout_type: solubility at 48 h (mg/mL)
Return type: number; implicit unit mg/mL.

Query block: Which solubility at 48 h value is on record for CC(C)Cc1ccc(C(C)C(=O)O)cc1 (stereo not shown) [IBU, ibuprofen] ?
Result block: 76.7
